Would you mind telling me the reported inhibition at 0.01 µM of each entry?
target: (h)V1a (Homo sapiens, UniProt P37288); experiment: In vitro V1a binding assay; conditions: read-out: % Binding inhibition (10^−8M)
Sequence (P37288 whole entry): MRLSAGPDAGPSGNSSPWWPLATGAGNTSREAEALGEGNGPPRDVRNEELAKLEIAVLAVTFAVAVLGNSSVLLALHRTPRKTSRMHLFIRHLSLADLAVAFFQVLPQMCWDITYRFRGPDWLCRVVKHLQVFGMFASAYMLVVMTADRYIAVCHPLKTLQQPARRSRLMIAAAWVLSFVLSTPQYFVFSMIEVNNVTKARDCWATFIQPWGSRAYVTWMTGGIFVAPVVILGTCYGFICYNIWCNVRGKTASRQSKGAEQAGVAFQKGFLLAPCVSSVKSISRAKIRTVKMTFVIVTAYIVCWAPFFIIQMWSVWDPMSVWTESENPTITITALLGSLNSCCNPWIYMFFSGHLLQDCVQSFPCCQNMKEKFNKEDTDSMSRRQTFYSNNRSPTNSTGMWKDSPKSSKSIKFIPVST
Numbers only, in %.

{"columns": ["compound", "reading_unit", "inhibition at 0.01 µM"],
 "data": [
  ["CC1(C)CC2CC(C)(CN2C(=O)c2ccc(-c3c[nH]c4ccccc34)cc2F)C1 (stereo not drawn)", "%", 77.1],
  ["COc1cc(C(=O)N2CC3(C)CC2CC(C)(C)C3)ccc1-c1ccc(F)nc1 (stereo not drawn)", "%", 33.9],
  ["COc1cc(C(=O)N2CCN(C)CC2)ccc1-c1c[nH]c2ccccc12 [13a]", "%", 4.7],
  ["COc1cc(C(=O)NC23CC4CC(CC(C4)C2)C3)ccc1-c1c[nH]c2ccccc12 [13d]", "%", 4.8]
]}

// each compound listed below needs its inhibition at 0.01 µM
1. CC1(C)CC2CC(C)(CN2C(=O)c2ccc(-c3c[nH]c4ccccc34)c(OCCF)c2)C1 (stereo not drawn)
2. Cc1ccccc1-c1ccc(C(=O)N2CC3(C)CC2CC(C)(C)C3)c(F)c1 (stereo not drawn)

### Response
1: 92.6; 2: 81.2
